System: NCI/ADR-RES
PROTOCOL TEXT: NCI tumour cell line growth inhibition, 48 h
Active and inactive are the calls of the source. No stated cut-off is given here; in the data, active = GI50 up to about 1.1 µM and inactive = higher.
RECORDED ENDPOINT: GI50

Sample answers from the record:
COMPOUND: CCOC(=O)c1ccc(NC(=O)O/N=C(/Cl)CC)cc1
GI50: 14 µM (inactive)
//
COMPOUND: N=C(N)N/N=C/c1cnn(C(=N)N)c1
GI50: > 100 µM (inactive)
//
COMPOUND: COc1ccccc1/N=N/C(=N\NC(=O)c1ccc(C)cc1)c1ccc(N(CCC#N)CCC#N)cc1C
GI50: 63 µM (inactive)

For each listed entry, give its GI50.
1. Oc1ccccc1/C=N/c1ccc(Oc2ccc(Cl)cc2)c(Cl)c1
2. COc1ccc(/C=C2\CCC(CN(C)C)C2=O)cc1OC (configuration not stated)
3. COc1cc(C(=O)CBr)c(OC)cc1C

["19.3 µM (inactive)", "2.49 µM (inactive)", "> 100 µM (inactive)"]

Read the entry "Cc1cc2c(cc1Cl)Sc1n[nH]c(=O)n1S2(=O)=O" and write its reported GI50.
> 100 µM (inactive)

* * *

Consider the following compounds; for each one, report its GI50.
System: KM12
PROTOCOL TEXT: NCI tumour cell line growth inhibition, 48 h
The source made the active and inactive calls. Rule as the data show it: active = GI50 up to about 1.1 µM and inactive = higher.

Below, each entry is followed by its recorded GI50 result.
COMPOUND: N=C(N)Nc1ccc(CC(N)C(=O)O)cc1 (stereo unspecified)
MEAS VALUE: > 12.5 µM (inactive)
//
COMPOUND: O=C(NNC(=S)NC1CCCCC1)C12CC3CC(CC(C3)C1)C2
MEAS VALUE: > 100 µM (inactive)
//
COMPOUND: O=C1C=C(Br)C(=O)C(Br)=C1
MEAS VALUE: > 100 µM (inactive)
//
COMPOUND: COC(=O)N/N=C(\C)CC(=O)Nc1ccc(Cl)cc1
MEAS VALUE: > 100 µM (inactive)
//
COMPOUND: Cc1ccc2c(ccc3c[n+]4ccccc4c(C)c32)c1.[O-][Cl+3]([O-])([O-])[O-]
MEAS VALUE: 0.39 µM (active)

Now take the following compound into account.
Dear colleague, please send me the reported GI50 for "CCOC(=O)c1ccc(NC(=O)O/N=C(/Cl)CC)cc1" when you can.
18.4 µM (inactive)

* * *

Test system: UO-31
PROTOCOL TEXT: NCI tumour cell line growth inhibition, 48 h
Activity calls are given as the source filed them. Rule as the data show it: active = GI50 up to about 1.1 µM and inactive = higher.
Give one outcome, nothing more. List: active, inactive

Some solved cases for reference:
COMPOUND: O=C1NCCS(=O)(=O)N[C@@H](CC2=CC=CCC2)C(=O)N2CCCC12 (stereo partly drawn)
CLASSIFICATION: inactive
--
COMPOUND: NCC[Se][Se]CCN
CLASSIFICATION: inactive
--
COMPOUND: C=CC[P@@]1(=O)O[C@H](c2ccccc2)C(C)N1C(C)C (stereo partly drawn)
CLASSIFICATION: inactive
--
COMPOUND: O=c1[nH]c2ccccc2c(=O)c2cc3ccccc3cc12
CLASSIFICATION: inactive

Per the assay record, what outcome was assigned to NC1=NC(c2ccccc2)CC(c2cc(Cl)ccc2O)=N1 (stereo not drawn) ?
inactive

What outcome does the record of this test show for "CO/N=C/c1cc(OC)c(OC)c(OC)c1" ?
inactive

Outcome? "COc1ccc(C(=O)c2nc3ccccc3nc2N2CCN(c3ccccc3)CC2)cc1OC"
inactive

Which outcome did this test record for the compound "N#C/C(=C\n1ccc(=O)[nH]c1=S)C(N)=O" ?
inactive

* * *

Tested on: SK-MEL-2
PROTOCOL TEXT: NCI tumour cell line growth inhibition, 48 h
Activity calls are given as the source filed them. No stated cut-off is given here; in the data, active = GI50 up to about 1.1 µM and inactive = higher.
RECORDED ENDPOINT: GI50

Observe how each entry below is paired with its result.
COMPOUND: CC1OC(n2cc(F)c(=O)[nH]c2=O)CCC1=O (stereo not given)
GI50: > 100 µM (inactive)
--
COMPOUND: Cc1ccc2c(c1)C(C1Cc3c(C)cccc3C1=O)OC2=O (stereo not given)
GI50: > 100 µM (inactive)
--
COMPOUND: COC(=O)c1ccc(C(=O)NC(Cc2ccc(Oc3cc(CC(NC(=O)c4ccccc4C(=O)OC)C(=O)OC)ccc3OC)cc2)C(=O)OC)cc1 (stereo not given)
GI50: 77.8 µM (inactive)
--
COMPOUND: Cc1ccc(C(=O)Nc2ccc(CP(=O)(O)O)cc2)cc1NC(=O)Nc1cc(C(=O)Nc2ccc(CP(=O)(O)O)cc2)ccc1C
GI50: > 100 µM (inactive)

We next turn to a different compound, shown below.
Output measured GI50 for this item: CC(c1ccc(Br)cc1)C(C(=O)O)C(=O)O (stereo not given)
> 100 µM (inactive)

* * *

System: SNB-75
PROTOCOL TEXT: NCI tumour cell line growth inhibition, 48 h
The source made the active and inactive calls. Cut-off read from the data, not from the text of the source: active = GI50 up to about 1.1 µM and inactive = higher.
// allowed return values: active, inactive

MOLECULE: COC(=O)CCc1ccc2c(c1)CC1(Cc3ccccc3C1)C2
CLASSIFICATION: active

MOLECULE: NC(=O)c1ncn2c1CNC(=O)C2
CLASSIFICATION: inactive

MOLECULE: CCOC(=O)c1ccc(NC(=O)O/N=C(/Cl)CC)cc1
CLASSIFICATION: inactive

MOLECULE: O=c1[nH]nc2c3n[nH]c(=O)n3c3ccccc3n12
CLASSIFICATION: inactive

MOLECULE: CC1(C)CC(=O)c2c(-c3ccc(Cl)cc3)c(C#N)c(=S)n(C3OC(CO)C(O)C(O)C3O)c2C1 (stereo not given)
CLASSIFICATION: inactive

MOLECULE: c1ccc(CCN2CCN=C2Cc2ccccc2)cc1
CLASSIFICATION: inactive

MOLECULE: O=c1[nH]ccc2c1ccn2C1CC(O)C(CO)O1 (stereo not given)
CLASSIFICATION: inactive

MOLECULE: Cc1nc(C(N)=S)sc1/C(CC(=O)C(=O)Nc1cccc2ccc(O)cc12)=N\NC(=O)c1ccncc1
CLASSIFICATION: inactive

State the result this test recorded for CC(C)=CCC/C(C)=C/CC/C(C)=C/CCC1(C)CCC([C@H](C)C(=O)O)OO1.CC1=C(CC/C(C)=C/CCC2(C)CCC([C@H](C)C(=O)O)OO2)C(C)(C)CCC1 (stereo not given in full) .
inactive

State the result this test recorded for "O=C(NCc1ccccc1)c1c(O)nc2ccccc2c1O" .
inactive

* * *

Tested on: K562
PROTOCOL TEXT: NCI tumour cell line growth inhibition, 48 h
Active and inactive are the calls of the source. No stated cut-off is given here; in the data, active = GI50 up to about 1.1 µM and inactive = higher.
Hi! Could you answer with just one of these? class 1 for active, class 0 for inactive

MOLECULE: CC1(C)N=C(/C(C#N)=[N+](/[O-])C(=O)c2ccccc2)C(C)(C)N1O
CLASSIFICATION: class 0
--
MOLECULE: CC1(C)COC2(OC1)C1=NS(=O)(=O)CC13CCC2C3(C)C (stereo not given)
CLASSIFICATION: class 0

Status in this test for "CN1S(=O)(=O)N(C)P12(N=P(CP(=NP13(N(C)S(=O)(=O)N1C)N(C)S(=O)(=O)N3C)(c1ccccc1)c1ccccc1)(c1ccccc1)c1ccccc1)N(C)S(=O)(=O)N2C" ?
class 0

Outcome? "CCn1c2ccccc2c(=O)c2c(OC)ccc(OC)c21"
class 0

How was "Cc1c(C(C)C)cc(OCCO)cc1C(C)C" classified in this test?
class 0

Hello, I am checking results. What call was entered for CCCCCCCC(=O)OC(CBr)COC(=O)C(C)(C)C (stereo not given) ?
class 0

Hey, what did the test say about CC1(C)C(=O)OC(n2cc(F)c(=O)[nH]c2=O)C1=O (stereo not given) ?
class 0

* * *

System: TK-10
PROTOCOL TEXT: NCI tumour cell line growth inhibition, 48 h
Activity calls are given as the source filed them. Rule as the data show it: active = GI50 up to about 1.1 µM and inactive = higher.
RECORDED ENDPOINT: GI50

MOLECULE: CC(=O)O[C@H]1C(=O)[C@@]2(C)[C@H]([C@H](OC(=O)c3ccncc3)[C@]3(O)C[C@H](OC(=O)[C@H](O)[C@@H](NC(=O)c4ccccc4)c4ccccc4)C(C)=C1C3(C)C)[C@]1(OC(C)=O)CO[C@@H]1C[C@@H]2O
RECORDED ENDPOINT: GI50
MEAS VALUE: > 25 µM (inactive)
--
MOLECULE: C[C@H]1COC2=C1C(=O)C(=O)c1c2ccc2c1CCCC2(C)C [CRYPTOTANSHINONE]
RECORDED ENDPOINT: GI50
MEAS VALUE: 8.18 µM (inactive)
--
MOLECULE: C[N+]12CCN(c3ccccc31)c1ccccc12.[O-][Cl+3]([O-])([O-])[O-]
RECORDED ENDPOINT: GI50
MEAS VALUE: > 10 µM (inactive)
--
MOLECULE: CC1CNC(c2ccc3c(c2)Cc2cc(C4=NC(C)CN4)ccc2-3)=N1 (stereo not drawn)
RECORDED ENDPOINT: GI50
MEAS VALUE: > 100 µM (inactive)
--
MOLECULE: Cc1nn(-c2ccccc2)c2c1C(c1cc3ccccc3nc1Cl)NC(=O)N2 (stereo not drawn)
RECORDED ENDPOINT: GI50
MEAS VALUE: 28.2 µM (inactive)
--
MOLECULE: C=C=C(CC(CC(=C)Br)(C(=O)OC)C(=O)OC)S(=O)(=O)c1ccccc1
RECORDED ENDPOINT: GI50
MEAS VALUE: 1.96 µM (inactive)

Kindly give each listed record's GI50.
1. OCCCCn1cc(Cn2ncc3c(NCc4ccccc4)ncnc32)nn1
2. COc1cc2c3c4c1OCc1c5c(cc(c1-4)CC3[N+](C)(C)CC2)OCO5 (stereo not drawn)

> 100 µM (inactive)
> 100 µM (inactive)
